Recorded melting point values for a group of molecules are listed next.

Examples with answers:
[[record]]
molecule = "CCCOc1ccc(F)c2c(=O)c(-c3ccc(OC)nc3)c[nH]c12 [Example 63]"
measured_attribute = "melting point"
measured_value = "215 to 216 °C"

[[record]]
molecule = "CCCOc1ccc(F)c2c(=O)c(-c3ccc(OC)cc3)c(C(C)C)[nH]c12 [Example 83]"
measured_attribute = "melting point"
measured_value = "195 to 197 °C"

[[record]]
molecule = "COc1ccc(-c2c[nH]c3c(C(=O)N4CCCC4)ccc(F)c3c2=O)cc1 [Example 23]"
measured_attribute = "melting point"
measured_value = "236 to 237 °C"

[[record]]
molecule = "CCCOc1ccc(F)c2c(=O)c(-c3ccc(OCC4CC4)cc3)c[nH]c12 [Example 35]"
measured_attribute = "melting point"
measured_value = "162 to 163 °C"


Provide melting point value for the following molecule: CCCOc1ccc(F)c2c(=O)c(-c3ccc(C(=O)N(C)C)cc3)c[nH]c12 [Example 57] 235 to 237 °C
